tested on: anti-desmoglein-3 scFv antibody binding to human DSG3; experiment: blockers of pathogenic pemphigus antibody–desmoglein-3 binding – biochemical, validation compound set, bead-based, flow cytometry, pilot screen (AID 588368); settings: Protein G beads, DSG3-Fc, scFv-GFP binding, at 10 µM, hits give low values;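 also: signal is the median channel fluorescence of bead-bound GFP antibody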
PROPERTY MEASURED: binding (% of control) (%)

{"MOLECULE": "Nc1cc(-c2ccncc2)c[nH]c1=O", "PROPERTY MEASURED": "binding (% of control)", "OBSERVED VALUE": 105}
{"MOLECULE": "NC(=O)C1CCCNC1 (stereo not given)", "PROPERTY MEASURED": "binding (% of control)", "OBSERVED VALUE": 103}
{"MOLECULE": "CCOc1ccc2ccccc2c1C(=O)N[C@@H]1C(=O)N2[C@@H]1SC(C)(C)[C@@H]2C(=O)O", "PROPERTY MEASURED": "binding (% of control)", "OBSERVED VALUE": 95.5}
{"MOLECULE": "COc1ccc(NC(=O)Nc2ccc(C(C)C)cc2)cc1", "PROPERTY MEASURED": "binding (% of control)", "OBSERVED VALUE": 97.3}
{"MOLECULE": "COc1ccccc1/C=C/C(=O)OCCN1CCOCC1", "PROPERTY MEASURED": "binding (% of control)", "OBSERVED VALUE": 106}
{"MOLECULE": "O=C1OC(c2ccccc2)=C/C1=C/c1cccs1", "PROPERTY MEASURED": "binding (% of control)", "OBSERVED VALUE": 93.3}
{"MOLECULE": "COc1ccccc1C(O)c1nccn1C (stereo not given)", "PROPERTY MEASURED": "binding (% of control)", "OBSERVED VALUE": 104}
{"MOLECULE": "Cc1nc(C2CC(=O)OC23CCCCC3)cs1 (stereo not given)", "PROPERTY MEASURED": "binding (% of control)", "OBSERVED VALUE": 98.7}
{"MOLECULE": "Cc1cccc2c(=O)n3c(nc12)CCCCC3", "PROPERTY MEASURED": "binding (% of control)", "OBSERVED VALUE": 105}
{"MOLECULE": "CCOc1ccc(N2C(=O)CNC2=S)cc1", "PROPERTY MEASURED": "binding (% of control)", "OBSERVED VALUE": 106}
{"MOLECULE": "CCCc1c(OCCCCc2nn[nH]n2)ccc(C(C)=O)c1O", "PROPERTY MEASURED": "binding (% of control)", "OBSERVED VALUE": 105}
{"MOLECULE": "CCOC(=O)c1cc2c(nc1N)CC(C)(CC)OC2 (stereo not given)", "PROPERTY MEASURED": "binding (% of control)", "OBSERVED VALUE": 105}
{"MOLECULE": "CCC(NC(C)C)C(O)c1ccc(O)c(O)c1 (stereo not given)", "PROPERTY MEASURED": "binding (% of control)", "OBSERVED VALUE": 105}
{"MOLECULE": "NC(=O)c1cccnc1", "PROPERTY MEASURED": "binding (% of control)", "OBSERVED VALUE": 99.8}
{"MOLECULE": "CC(=O)C1=C(Nc2ccc(C)cc2)CC(C)(O)C(C(C)=O)C1c1ccco1 (stereo not given)", "PROPERTY MEASURED": "binding (% of control)", "OBSERVED VALUE": 105}
{"MOLECULE": "CN1CC2CCCC3(C1)C(=O)NC1(CCCCC1)N=C23 (stereo not given)", "PROPERTY MEASURED": "binding (% of control)", "OBSERVED VALUE": 99}
{"MOLECULE": "CC(=O)N[C@@H](CS)C(=O)O", "PROPERTY MEASURED": "binding (% of control)", "OBSERVED VALUE": 104}
{"MOLECULE": "CC(=O)SC1CC2=CC(=O)CCC2(C)C2CCC3(C)C(CCC34CCC(=O)O4)C12 (stereo not given)", "PROPERTY MEASURED": "binding (% of control)", "OBSERVED VALUE": 100}
{"MOLECULE": "CC(=O)Nc1nnc(S(N)(=O)=O)s1", "PROPERTY MEASURED": "binding (% of control)", "OBSERVED VALUE": 102}
{"MOLECULE": "Cc1ccc2c(c1)C1CN(C)CCC1N2S(=O)(=O)c1ccc(Oc2ccc([N+](=O)[O-])cc2)cc1 (stereo not given)", "PROPERTY MEASURED": "binding (% of control)", "OBSERVED VALUE": 105}
{"MOLECULE": "COC(=O)[C@@H](N)CS", "PROPERTY MEASURED": "binding (% of control)", "OBSERVED VALUE": 95.6}
{"MOLECULE": "CC1=C(C)C(=O)C(CCCCC#CCCCC#CCO)=C(C)C1=O", "PROPERTY MEASURED": "binding (% of control)", "OBSERVED VALUE": 103}
{"MOLECULE": "c1ccc(CC2=NCCN2)cc1", "PROPERTY MEASURED": "binding (% of control)", "OBSERVED VALUE": 98}
{"MOLECULE": "N#C/C(=C/c1ccccc1)C(=O)NCc1ccccc1", "PROPERTY MEASURED": "binding (% of control)", "OBSERVED VALUE": 101}
{"MOLECULE": "CCc1cc2c(=O)c(-c3ccc4c(c3)OCCO4)coc2c(CN2CCCCC2C)c1O (stereo not given)", "PROPERTY MEASURED": "binding (% of control)", "OBSERVED VALUE": 112}
{"MOLECULE": "CCC[C@@H]1C[C@@H](C(=O)N[C@H]([C@@H](C)O)[C@H]2O[C@H](SC)[C@H](O)[C@@H](O)C2O)N(C)C1 (stereo not given in full)", "PROPERTY MEASURED": "binding (% of control)", "OBSERVED VALUE": 106}
{"MOLECULE": "CC(C)(C)C(=O)NC(=S)NNC(=O)c1ccncc1", "PROPERTY MEASURED": "binding (% of control)", "OBSERVED VALUE": 105}
{"MOLECULE": "CSCCC1NC2(C(=O)Nc3ccc(Cl)cc32)[C@@H]2C(=O)N(C3CCCC3)C(=O)[C@H]12 (stereo not given in full)", "PROPERTY MEASURED": "binding (% of control)", "OBSERVED VALUE": 109}
{"MOLECULE": "COc1ccc(-n2cc(CNCc3cccnc3)c(-c3cccc(F)c3)n2)cc1", "PROPERTY MEASURED": "binding (% of control)", "OBSERVED VALUE": 104}
{"MOLECULE": "CC(=O)N(C(C)=O)c1nc2nc(C)cc(C)n2n1", "PROPERTY MEASURED": "binding (% of control)", "OBSERVED VALUE": 102}
{"MOLECULE": "CN(C)CCCN1c2ccccc2CCc2ccccc21", "PROPERTY MEASURED": "binding (% of control)", "OBSERVED VALUE": 99.7}
{"MOLECULE": "OCCN1CCN(CCCN2c3ccccc3Sc3ccc(C(F)(F)F)cc32)CC1", "PROPERTY MEASURED": "binding (% of control)", "OBSERVED VALUE": 111}
{"MOLECULE": "Cc1nc(NCc2ccco2)c(C#N)c2c1COC(C)(C)C2", "PROPERTY MEASURED": "binding (% of control)", "OBSERVED VALUE": 98.8}
{"MOLECULE": "COc1ccc2c(c1)c(=O)oc1cc3occ(C(C)(C)C)c3cc12", "PROPERTY MEASURED": "binding (% of control)", "OBSERVED VALUE": 93.8}
{"MOLECULE": "CN(C)C(=O)CCCCCCCCC(=O)N(C)C", "PROPERTY MEASURED": "binding (% of control)", "OBSERVED VALUE": 101}
{"MOLECULE": "CC(=O)CCCCn1c(=O)c2c(ncn2C)n(C)c1=O", "PROPERTY MEASURED": "binding (% of control)", "OBSERVED VALUE": 95.5}
{"MOLECULE": "COc1cc(C(=S)N(C)C)ccc1O", "PROPERTY MEASURED": "binding (% of control)", "OBSERVED VALUE": 101}
{"MOLECULE": "OCC(O)CN1CCN(c2ccccc2)CC1 (stereo not given)", "PROPERTY MEASURED": "binding (% of control)", "OBSERVED VALUE": 96.2}
{"MOLECULE": "CCN(CC)CC#CCOC(=O)C(O)(c1ccccc1)C1CCCCC1 (stereo not given)", "PROPERTY MEASURED": "binding (% of control)", "OBSERVED VALUE": 104}
{"MOLECULE": "CC12CN3CC(C)(CN(C1)C3c1ccc([N+](=O)[O-])o1)C2 (stereo not given)", "PROPERTY MEASURED": "binding (% of control)", "OBSERVED VALUE": 93.8}
{"MOLECULE": "Cc1ccc2ncnc(NCCCCCC(=O)O)c2c1", "PROPERTY MEASURED": "binding (% of control)", "OBSERVED VALUE": 101}
{"MOLECULE": "Cc1c2c(nc3c(C)cccc13)OC(C)C2 (stereo not given)", "PROPERTY MEASURED": "binding (% of control)", "OBSERVED VALUE": 97.6}
{"MOLECULE": "C[C@]12CC[C@@H]3c4ccc(O)cc4CC[C@H]3[C@@H]1CC[C@@H]2O", "PROPERTY MEASURED": "binding (% of control)", "OBSERVED VALUE": 103}
{"MOLECULE": "Cc1nc(-c2coc3c(CN(C)C)c(O)ccc3c2=O)cs1", "PROPERTY MEASURED": "binding (% of control)", "OBSERVED VALUE": 105}
{"MOLECULE": "O=C(CC1(O)C(=O)Nc2ccccc21)c1ccccc1O (stereo not given)", "PROPERTY MEASURED": "binding (% of control)", "OBSERVED VALUE": 99.5}
{"MOLECULE": "CC(C)(C)NCC(O)COc1ccccc1C(=O)CCc1ccccc1 (stereo not given)", "PROPERTY MEASURED": "binding (% of control)", "OBSERVED VALUE": 104}
{"MOLECULE": "COc1ccccc1N1C(=O)C2CC(C)=C(C)CC2C1=O (stereo not given)", "PROPERTY MEASURED": "binding (% of control)", "OBSERVED VALUE": 99}
{"MOLECULE": "O=C(O)c1ccc(C(=O)C(=O)c2ccccc2)cc1", "PROPERTY MEASURED": "binding (% of control)", "OBSERVED VALUE": 96.6}
{"MOLECULE": "COc1cc2c(cc1OC)/C(=C/c1ccc(Cl)cc1)C(=O)OC2", "PROPERTY MEASURED": "binding (% of control)", "OBSERVED VALUE": 104}
{"MOLECULE": "O[C@H]1COC2C1OC[C@@H]2O (stereo not given in full)", "PROPERTY MEASURED": "binding (% of control)", "OBSERVED VALUE": 104}
